Data provenance: patent US10800791B2

- Test system: C. krusei
- test.protocol: Antifungal Activity Assay (broth microtiter MIC), C. krusei
- Format: cell-based, Candida krusei
- measurement.context: Pichia kudriavzevii, ATCC6258, 48 h, Table 3b (additional results); ATCC 6258; 3 replicates; MIC recorded at 48 h; read-out: MIC, C. krusei ATCC 6258
For each of the compounds below, state its MIC.

Challenge: Notebook entry, C. krusei assay: MIC of COc1ccc(Br)cc1[C@H](Cn1c(=O)n(C(C)(C)C(=O)NC(C)C)c(=O)c2c(C)c(-n3nccn3)sc21)OCC(C)(C)C#N = ?
Response given: 0.25 to 1 µg/mL

Challenge: Same lookup for COc1ccc(F)cc1[C@H](Cn1c(=O)n(C(C)(C)C(=O)NC(C)C)c(=O)c2c(C)c(-n3nccn3)sc21)OC[C@@H](C)C(=O)O , please.
Response given: 0.25 to 1 µg/mL

Challenge: Same lookup for COc1ccc(F)cc1[C@H](Cn1c(=O)n(C(C)(C)C(=O)NC(C)C)c(=O)c2c(C)c(-n3nccn3)sc21)OC[C@@H](C)C#N , please.
Response given: 0.25 to 1 µg/mL
